targetOfAssay: human Werner helicase (WRN, Uniprot Q14191, amino acids 517-1235 with L1074F point mutation; WRN-BV08) (Homo sapiens, UniProt Q14191, L1074F)
Construct: Uniprot Q14191, amino acids 517-1235 with L1074F point mutation; 8xHis (C, cleaved yes); TEV cleavage site (ENLYFQG) (C, cleaved yes); made in house; host or cells: Sf9 insect cells (baculovirus, pFastBac)
Sequence (Q14191 with tags, fused parts or gaps L1074F): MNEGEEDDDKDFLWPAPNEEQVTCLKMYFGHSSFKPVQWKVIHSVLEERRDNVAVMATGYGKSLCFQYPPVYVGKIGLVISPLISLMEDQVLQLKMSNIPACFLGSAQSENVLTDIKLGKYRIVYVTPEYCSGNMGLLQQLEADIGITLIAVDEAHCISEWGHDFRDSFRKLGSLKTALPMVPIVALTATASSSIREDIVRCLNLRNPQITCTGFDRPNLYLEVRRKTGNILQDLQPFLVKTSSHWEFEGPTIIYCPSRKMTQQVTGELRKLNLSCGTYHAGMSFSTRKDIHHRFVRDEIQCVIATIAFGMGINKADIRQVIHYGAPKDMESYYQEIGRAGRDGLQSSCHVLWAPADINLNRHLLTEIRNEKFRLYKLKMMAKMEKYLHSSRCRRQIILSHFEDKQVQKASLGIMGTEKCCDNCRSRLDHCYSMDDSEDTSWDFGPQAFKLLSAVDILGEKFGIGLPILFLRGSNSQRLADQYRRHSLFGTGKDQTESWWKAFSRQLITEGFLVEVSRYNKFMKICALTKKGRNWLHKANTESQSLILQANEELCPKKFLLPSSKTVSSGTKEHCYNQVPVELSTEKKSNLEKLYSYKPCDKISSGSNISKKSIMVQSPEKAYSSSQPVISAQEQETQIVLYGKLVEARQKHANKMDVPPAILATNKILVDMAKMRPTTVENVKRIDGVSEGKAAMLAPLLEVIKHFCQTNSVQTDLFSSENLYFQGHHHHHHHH
runDescription: WRN (BV08) ADP-Glo assay
Assay type: biochemical
testConditions: WRN-BV08 (aa 517-1235, L1074F); read-out: ADP-Glo_hWRN_IC50

>  <molecule>
CCc1c(N2CCN(C(=O)c3ncc4c(c3O)CCO4)CC2)c(=O)n2nc(C3=CCOCC3)nc2n1CC(=O)NC12CC(F)(C1)C2

>  <IC50>
> 500 nM

$$$$
>  <molecule>
CCc1c(N2CCN(C(=O)c3c(COC)cccc3OC)[C@H]3CC[C@@H]32)c(=O)c2nn(C3=CCOCC3)nc2n1CC(=O)NC12CC(C3CC3)(C1)C2

>  <IC50>
5 to 50 nM

$$$$
>  <molecule>
CCc1c(N2CCN(C(=O)c3ncnc(C)c3O)CC2)c(=O)n2nc(-c3ccnc(OC)c3)nc2n1CC(=O)NC12CC(C(C)C)(C1)C2

>  <IC50>
5 to 50 nM

$$$$
>  <molecule>
CCc1c(N2CCN(C(=O)c3ncnc(C)c3O)CC2)c(=O)c2sc(-c3ccnc(OC)c3)nc2n1CC(=O)NC12CC(C(F)(F)F)(C1)C2

>  <IC50>
5 to 50 nM

$$$$
>  <molecule>
CCc1c(N2CCN(C(=O)c3c(O)cc(OC)cc3OC)CC2)c(=O)c2nn(-c3ccnc(OC)c3)nc2n1CC(=O)NC12CC(C3CC3)(C1)C2

>  <IC50>
5 to 50 nM

$$$$
>  <molecule>
CCc1c(N2CCN(C(=O)c3c(OC)ncc(C)c3O)CC2)c(=O)n2nc(-c3ccnc(OC)c3)nc2n1CC(=O)NC12CC(C3CC3)(C1)C2

>  <IC50>
5 to 50 nM

$$$$
>  <molecule>
CCc1c(N2CCN(C(=O)c3c(O)ccnc3OC)CC2)c(=O)n2nc(C3=CCOCC3)nc2n1CC(=O)NC12CC(C(F)(F)F)(C1)C2

>  <IC50>
50 to 100 nM

$$$$
>  <molecule>
CCc1c(N2CCN(C(=O)c3ncc4c(c3O)CCO4)CC2)c(=O)n2nc(C3=CCN(C(=O)COC)CC3)nc2n1CC(=O)NC12CC(C(F)(F)F)(C1)C2

>  <IC50>
5 to 50 nM

$$$$
>  <molecule>
CCc1c(N2CCN(C(=O)c3ncnc(C)c3O)[C@H]3CC[C@@H]32)c(=O)c2c(nnn2C2CC2)n1CC(=O)NC12CC(C3CC3)(C1)C2

>  <IC50>
100 to 500 nM

$$$$
>  <molecule>
CCc1c(N2CCN(C(=O)c3cnn(C)c3)CC2)c(=O)n2nc(-c3ccnc(OC)c3)nc2n1CC(=O)NC1Cc2ccc(F)cc2C1 (stereo not drawn)

>  <IC50>
100 to 500 nM

$$$$
>  <molecule>
CCc1c(N2CCN(C(=O)c3ncnc(C)c3O)[C@H]3CC[C@@H]32)c(=O)c2nc(N(C)C)cnc2n1CC(=O)NC12CC(C3CC3)(C1)C2

>  <IC50>
5 to 50 nM

$$$$
>  <molecule>
CCc1c(N2CCN(C(=O)c3c(O)ccc4ncoc34)CC2)c(=O)n2nc(-c3ccnc(OC)c3)nc2n1CC(=O)NC12CC(C(C)C)(C1)C2

>  <IC50>
≤ 5 nM

$$$$
>  <molecule>
CCc1c(N2CCN(C(=O)c3c(O)ccc4ncoc34)CC2)c(=O)n2nc(-c3ccnc(OC)c3)nc2n1CC(=O)NC12CCC(C(F)(F)F)(CC1)CC2

>  <IC50>
5 to 50 nM

$$$$
>  <molecule>
CCc1c(N2CCN(C(=O)c3c(O)ccc4nc(C)oc34)CC2)c(=O)n2nc(-c3ccnc(OC)c3)nc2n1CC(=O)NC12CC(CC)(C1)C2

>  <IC50>
5 to 50 nM

$$$$
>  <molecule>
CCc1c(N2CCN(C(=O)c3c(O)ccc4ncoc34)CC2)c(=O)n2nc(-c3ccnc(OC)c3)nc2n1CC(=O)NC12CC(OC)(C1)C2

>  <IC50>
100 to 500 nM

$$$$
>  <molecule>
CCc1c(N2CCN(C(=O)c3cnn(C)c3)CC2)c(=O)n2nc(-c3ccnc(OC)c3)nc2n1CC(=O)NC1(C(O)c2ccccc2)CC1 (stereo not drawn)

>  <IC50>
100 to 500 nM

$$$$
>  <molecule>
CCc1c(N2CCN(C(=O)c3ncnc(C)c3O)[C@H]3CC[C@@H]32)c(=O)c2nn(C3=CCOC(C)C3)nc2n1CC(=O)NC12CC(C3CC3)(C1)C2 (single isomer, unassigned) [I-169]

>  <IC50>
5 to 50 nM

$$$$
>  <molecule>
CCc1c(N2CCN(C(=O)c3c(OC)ncc(C)c3O)CC2)c(=O)n2nc(C3=CCOCC3)nc2n1CC(=O)NC12CC(C(F)(F)F)(C1)C2

>  <IC50>
5 to 50 nM

$$$$
>  <molecule>
CCc1c(N2CCN(C(=O)c3nocc3O)[C@H]3CC[C@@H]32)c(=O)c2nn(C3=CCOCC3)nc2n1CC(=O)NC12CC(C(C)C)(C1)C2

>  <IC50>
≤ 5 nM

$$$$
>  <molecule>
CCc1c(N2CCN(C(=O)c3ncnc(C)c3O)[C@H]3CC[C@@H]32)c(=O)c2nc(N(C)C)cnc2n1CC(=O)NC1CC2(CC(C)C2)C1 (stereo partly drawn)

>  <IC50>
50 to 100 nM

$$$$
>  <molecule>
CCc1c(N2CCN(C(=O)c3ncnc(C)c3O)[C@H]3CCC[C@@H]32)c(=O)c2nn(-c3ccnc(OC)c3)nc2n1CC(=O)NC12CC(C3CC3)(C1)C2

>  <IC50>
5 to 50 nM

$$$$
>  <molecule>
CCc1c(N2CCN(C(=O)c3c(O)ccc4ncoc34)[C@H]3CC[C@@H]32)c(=O)c2nc(N(C)C)cnc2n1CC(=O)NC12CC(C(C)C)(C1)C2

>  <IC50>
5 to 50 nM

$$$$
>  <molecule>
CCc1c(N2CCN(C(=O)c3c(O)ccc4ncoc34)CC2)c(=O)n2nc(-c3ccnc(OC)c3)nc2n1CC(=O)NC12CC(C3CCC3)(C1)C2

>  <IC50>
≤ 5 nM

$$$$
>  <molecule>
CCc1c(N2CCN(C(=O)c3c(O)ccc4ncoc34)CC2)c(=O)n2nc(C3=CCOCC3)nc2n1CC(=O)NC12CC(C(C)C)(C1)C2

>  <IC50>
5 to 50 nM

$$$$

###

targetOfAssay: human Werner helicase (WRN, Uniprot Q14191, amino acids 517-1235 with L1074F point mutation; WRN-BV08) (Homo sapiens, UniProt Q14191, L1074F)
Construct: Uniprot Q14191, amino acids 517-1235 with L1074F point mutation; 8xHis (C, cleaved yes); TEV cleavage site (ENLYFQG) (C, cleaved yes)
runDescription: WRN (BV08) ADP-Glo assay
testConditions: WRN-BV08 (aa 517-1235, L1074F); read-out: ADP-Glo_hWRN_IC50
Each item that follows carries a reported IC50.

>  <compound>
CCc1c(N2CCN(C(=O)c3ncnc(C)c3O)[C@H]3CC[C@@H]32)c(=O)c2nc(N(C)C)cnc2n1CC(=O)NC1CC2(CCC2)C1

>  <IC50>
5 to 50 nM

$$$$
>  <compound>
CCc1c(N2CCN(C(=O)c3cccc(N4CCN(C)CC4)c3)[C@H]3CC[C@@H]32)c(=O)c2nn(C3=CCOCC3)nc2n1CC(=O)NC12CC(C(C)C)(C1)C2

>  <IC50>
≤ 5 nM

$$$$
>  <compound>
CCc1c(N2CCN(C(=O)c3c(OC)ncc(C)c3O)CC2)c(=O)n2nc(-c3ccnc(C)c3)nc2n1CC(=O)NC12CC(C(C)C)(C1)C2

>  <IC50>
5 to 50 nM

$$$$
>  <compound>
CCc1c(N2CCN(C(=O)c3c(O)ccc4ncoc34)CC2)c(=O)n2nc(N(C)C)nc2n1CC(=O)NC12CC(C(F)(F)F)(C1)C2

>  <IC50>
5 to 50 nM

$$$$
>  <compound>
CCc1c(N2CCN(C(=O)c3c(OC)cccc3B(O)O)[C@H]3CC[C@@H]32)c(=O)c2nn(C3=CCOCC3)nc2n1CC(=O)NC12CC(C(C)C)(C1)C2

>  <IC50>
5 to 50 nM

$$$$
>  <compound>
CCc1c(N2CCN(C(=O)c3ncnc(C)c3O)[C@H]3CC[C@@H]32)c(=O)c2nc(C)c(C)nc2n1CC(=O)NC12CC(C3CC3)(C1)C2

>  <IC50>
5 to 50 nM

$$$$
>  <compound>
CCc1c([C@@]23CCN(C(=O)c4ncnc(C)c4O)C[C@@H]2C3)c(=O)c2nn(-c3ccnc(OC)c3)nc2n1CC(=O)NC12CC(C(C)C)(C1)C2 (relative stereo)

>  <IC50>
5 to 50 nM

$$$$
>  <compound>
CCc1c(N2CCN(C(=O)c3ncnc(C)c3O)[C@H]3CC[C@@H]32)c(=O)c2nc(N(C)C)cnc2n1CC(=O)NC12CC(C3CCCC3)(C1)C2

>  <IC50>
5 to 50 nM

$$$$
>  <compound>
CCc1c(N2CCN(C(=O)c3ncnc(C)c3O)[C@H]3CC[C@@H]32)c(=O)c2nn(-c3ccnc(C(F)(F)F)c3)nc2n1CC(=O)NC12CC(C3CC3)(C1)C2

>  <IC50>
5 to 50 nM

$$$$
>  <compound>
CCc1c(N2CCN(C(=O)c3c(OC)ncc(C4CCOC4)c3O)CC2)c(=O)c2nn(-c3ccnc(OC)c3)nc2n1CC(=O)NC12CC(C(C)C)(C1)C2 (single isomer, unassigned) [I-65]

>  <IC50>
5 to 50 nM

$$$$
>  <compound>
CCc1c(N2CCN(C(=O)c3ncc4c(c3O)CCO4)CC2)c(=O)n2nc(C3=CCOCC3)nc2n1CC(=O)NC12CC(OC)(C1)C2

>  <IC50>
> 500 nM

$$$$
>  <compound>
CCc1c(N2CCN(C(=O)c3ncnc(C)c3O)[C@H]3CC[C@@H]32)c(=O)c2nn(C3=CCC(OC)CC3)nc2n1CC(=O)NC12CC(C3CC3)(C1)C2 (stereo partly drawn)

>  <IC50>
5 to 50 nM

$$$$
